- ASSAY DETAILS: Biodistribution in ICR mice after an iv injection
- Assay type: in vivo
- SETTINGS: Lung, 2 min after iv injection
Would you kindly list % dose/g for each of these compounds?

Can you look up the measured % dose/g of CN(C)c1ccc(-c2ccc3nc(OCCOCCOCC[18F])ccc3c2)cc1 [[^18F]32a] for me? 7.63 ± 0.46 % dose/g

Similarly, CNc1ccc(-c2ccc3cc(OCCOCCOCCF)ccc3c2)cc1 ? 5.73 ± 0.19 % dose/g

Similarly, CNc1ccc2cc(-c3ccc(OCCOCCOCC[18F])cc3)ccc2c1 [[^18F]19a] ? 9.19 ± 1.18 % dose/g

Similarly, CNc1ccc(-c2ccc3nc(OCCOCCOCC[18F])ccc3c2)cc1 [[^18F]34a] ? 6.83 ± 0.07 % dose/g

----------
- ASSAY DETAILS: Biodistribution in ICR mice after an iv injection
- Format: in vivo
- SETTINGS: Brain, 1 hr after iv injection
Would you kindly list % dose/g for each of these compounds?

Can you look up the measured % dose/g of CNc1ccc(-c2ccc3cc(OCCOCCOCCF)ccc3c2)cc1 for me? 1.58 ± 0.18 % dose/g

Similarly, CNc1ccc(-c2ccc3nc(OCCOCCOCC[18F])ccc3c2)cc1 [[^18F]34a] ? 1.88 ± 0.20 % dose/g

Similarly, CNc1ccc2cc(-c3ccc(OCCOCCOCC[18F])cc3)ccc2c1 [[^18F]19a] ? 1.05 ± 0.20 % dose/g

Similarly, CN(C)c1ccc(-c2ccc3nc(OCCOCCOCC[18F])ccc3c2)cc1 [[^18F]32a] ? 1.92 ± 0.31 % dose/g

----------
Would you kindly list % dose/organ for each of these molecules?
- ASSAY DETAILS: Biodistribution in ICR mice after an iv injection
- Format: in vivo
- SETTINGS: Spleen, 1 hr after iv injection
Answer with a number only, understood to be in % dose/organ.

Can you look up the measured % dose/organ of CNc1ccc(-c2ccc3cc(OCCOCCOCCF)ccc3c2)cc1 for me? 0.23

Similarly, CNc1ccc(-c2ccc3nc(OCCOCCOCC[18F])ccc3c2)cc1 [[^18F]34a] ? 0.17

Similarly, CN(C)c1ccc(-c2ccc3nc(OCCOCCOCC[18F])ccc3c2)cc1 [[^18F]32a] ? 0.15

Similarly, CNc1ccc2cc(-c3ccc(OCCOCCOCC[18F])cc3)ccc2c1 [[^18F]19a] ? 0.30

----------
- ASSAY DETAILS: Biodistribution in ICR mice after an iv injection
- Format: in vivo
- SETTINGS: Blood, 2 hr after iv injection
Would you kindly list % dose/organ for each of these compounds?
Answer with a number only, understood to be in % dose/organ.

Can you look up the measured % dose/organ of CNc1ccc2cc(-c3ccc(OCCOCCOCC[18F])cc3)ccc2c1 [[^18F]19a] for me? 5.19

Similarly, CNc1ccc(-c2ccc3nc(OCCOCCOCC[18F])ccc3c2)cc1 [[^18F]34a] ? 2.58

Similarly, CN(C)c1ccc(-c2ccc3nc(OCCOCCOCC[18F])ccc3c2)cc1 [[^18F]32a] ? 2.00

Similarly, CNc1ccc(-c2ccc3cc(OCCOCCOCCF)ccc3c2)cc1 ? 3.59

----------
Would you kindly list % dose/organ for each of these molecules?
- ASSAY DETAILS: Biodistribution in ICR mice after an iv injection
- Assay type: in vivo
- SETTINGS: Kidney, 1 hr after iv injection
Answer with a number only, understood to be in % dose/organ.

Can you look up the measured % dose/organ of CN(C)c1ccc(-c2ccc3nc(OCCOCCOCC[18F])ccc3c2)cc1 [[^18F]32a] for me? 1.24

Similarly, CNc1ccc2cc(-c3ccc(OCCOCCOCC[18F])cc3)ccc2c1 [[^18F]19a] ? 1.37

Similarly, CNc1ccc(-c2ccc3nc(OCCOCCOCC[18F])ccc3c2)cc1 [[^18F]34a] ? 1.36

Similarly, CNc1ccc(-c2ccc3cc(OCCOCCOCCF)ccc3c2)cc1 ? 1.05

----------
- TESTED SYSTEM: amyloid plaques (Homo sapiens)
- Construct: fibrillary Aβ plaques consisting predominately of aggregates of Aβ40 and Aβ42 peptides
- Sequence (P05067 672-713 limits assumed): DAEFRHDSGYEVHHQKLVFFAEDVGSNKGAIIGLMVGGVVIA
- Sequence (P05067 672-711 limits assumed): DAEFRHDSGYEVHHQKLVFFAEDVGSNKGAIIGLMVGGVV
- ASSAY DETAILS: Ki values of Phen-Nap, Nap-Phen derivatives (Ki binding data)
pKi: −log10 of the molar value.
Classify as follows. Reported pKi greater than or equal to 8: condition met. Reported pKi below: condition not met.

Could you please find out whether CN(C)c1ccc(-c2ccc3nc(OCCOCCOCCO)ccc3c2)cc1 [Compound 32b] has pKi that meets 8 or exceeds it? condition met

Similarly, Nc1ccc(-c2ccc3cc(OCCOCCOCCO)ccc3c2)cc1 [Compound 11b] ? condition not met

Similarly, COc1ccc(-c2ccc3cc(O)ccc3c2)cc1 ? condition met

Similarly, CN(C)c1ccc2cc(-c3ccc(O)cc3)ccc2c1 ? condition met

Similarly, CN(C)c1ccc(-c2ccc3nc(OCCOCCOCCF)ccc3c2)cc1 [Compound 32a] ? condition met

Similarly, CNc1ccc(-c2ccc3nc(OCCOCCOCCO)ccc3c2)cc1 [Compound 34b] ? condition met

Similarly, Nc1ccc2cc(-c3ccc(OCCOCCOCCO)cc3)ccc2c1 [Compound 17b] ? condition not met

Similarly, CNc1ccc2cc(-c3ccc(OCCOCCOCCF)cc3)ccc2c1 [Compound 19a] ? condition met

----------
- ASSAY DETAILS: Biodistribution in ICR mice after an iv injection
- Format: in vivo
- SETTINGS: Bone, 2 min after iv injection
ENDPOINT LABEL: % dose/g (% dose/g)
Answer with a number only, understood to be in % dose/g.

Can you look up the measured % dose/g of CNc1ccc2cc(-c3ccc(OCCOCCOCC[18F])cc3)ccc2c1 [[^18F]19a] for me? 1.32

Similarly, CN(C)c1ccc(-c2ccc3nc(OCCOCCOCC[18F])ccc3c2)cc1 [[^18F]32a] ? 1.25

Similarly, CNc1ccc(-c2ccc3nc(OCCOCCOCC[18F])ccc3c2)cc1 [[^18F]34a] ? 1.11

Similarly, CNc1ccc(-c2ccc3cc(OCCOCCOCCF)ccc3c2)cc1 ? 2.14

----------
- ASSAY DETAILS: Biodistribution in ICR mice after an iv injection
- Type: in vivo
- SETTINGS: Skin, 1 hr after iv injection
ENDPOINT LABEL: % dose/organ (% dose/organ)
Answer with a number only, understood to be in % dose/organ.

Can you look up the measured % dose/organ of CNc1ccc(-c2ccc3cc(OCCOCCOCCF)ccc3c2)cc1 for me? 6.53

Similarly, CNc1ccc2cc(-c3ccc(OCCOCCOCC[18F])cc3)ccc2c1 [[^18F]19a] ? 4.46

Similarly, CN(C)c1ccc(-c2ccc3nc(OCCOCCOCC[18F])ccc3c2)cc1 [[^18F]32a] ? 3.53

Similarly, CNc1ccc(-c2ccc3nc(OCCOCCOCC[18F])ccc3c2)cc1 [[^18F]34a] ? 5.67

----------
- ASSAY DETAILS: Biodistribution in ICR mice after an iv injection
- Type: in vivo
- SETTINGS: Liver, 2 hr after iv injection
Would you kindly list % dose/g for each of these molecules?

Can you look up the measured % dose/g of CNc1ccc(-c2ccc3cc(OCCOCCOCCF)ccc3c2)cc1 for me? 11.9 ± 1.87 % dose/g

Similarly, CNc1ccc2cc(-c3ccc(OCCOCCOCC[18F])cc3)ccc2c1 [[^18F]19a] ? 8.85 ± 0.76 % dose/g

Similarly, CN(C)c1ccc(-c2ccc3nc(OCCOCCOCC[18F])ccc3c2)cc1 [[^18F]32a] ? 5.22 ± 0.49 % dose/g

Similarly, CNc1ccc(-c2ccc3nc(OCCOCCOCC[18F])ccc3c2)cc1 [[^18F]34a] ? 6.72 ± 0.58 % dose/g

----------
- ASSAY DETAILS: Biodistribution in ICR mice after an iv injection
- Assay type: in vivo
- SETTINGS: Kidney, 1 hr after iv injection
ENDPOINT LABEL: % dose/g (% dose/g)
Answer with a number only, understood to be in % dose/g.

Can you look up the measured % dose/g of CNc1ccc2cc(-c3ccc(OCCOCCOCC[18F])cc3)ccc2c1 [[^18F]19a] for me? 3.82

Similarly, CNc1ccc(-c2ccc3nc(OCCOCCOCC[18F])ccc3c2)cc1 [[^18F]34a] ? 3.57

Similarly, CN(C)c1ccc(-c2ccc3nc(OCCOCCOCC[18F])ccc3c2)cc1 [[^18F]32a] ? 3.38

Similarly, CNc1ccc(-c2ccc3cc(OCCOCCOCCF)ccc3c2)cc1 ? 2.75

----------
- ASSAY DETAILS: Biodistribution in ICR mice after an iv injection
- Format: in vivo
- SETTINGS: Kidney, 30 min after iv injection
ENDPOINT LABEL: % dose/g (% dose/g)
Answer with a number only, understood to be in % dose/g.

Can you look up the measured % dose/g of CN(C)c1ccc(-c2ccc3nc(OCCOCCOCC[18F])ccc3c2)cc1 [[^18F]32a] for me? 3.61

Similarly, CNc1ccc2cc(-c3ccc(OCCOCCOCC[18F])cc3)ccc2c1 [[^18F]19a] ? 3.61

Similarly, CNc1ccc(-c2ccc3nc(OCCOCCOCC[18F])ccc3c2)cc1 [[^18F]34a] ? 4.41

Similarly, CNc1ccc(-c2ccc3cc(OCCOCCOCCF)ccc3c2)cc1 ? 3.98
